Observed pIC50 values for human thrombin (Homo sapiens) are listed in what follows.
pIC50: −log10 of the molar value.

// known answers, use as guide
> print(dat)
                               given.smiles  measured.property  result.value
1  O=C(Cc1c(F)ccc(NS(=O)(=O)Cc2ccccc2)c1F)NCC1CCNCC1              pIC50        < 4.52
2  O=C(Cc1c(F)ccc(NS(=O)(=O)Cc2ccccc2)c1F)NCc1ccncc1              pIC50        < 4.52
3  CN(C)c1ccc(CNC(=O)Cc2c(F)ccc(NS(=O)(=O)Cc3ccccc3)c2F)cc1              pIC50        < 4.52
4  N=C(N)c1ccc(CNC(=O)Cc2c(-c3ccccc3)ccc(NCCc3ccccc3)c2O)cc1              pIC50          5.15
5  N=C(N)c1ccc(CNC(=O)Cc2c(F)ccc(NCCc3ccccc3)c2F)cc1              pIC50          5.80
6  COc1c(NCCc2ccccc2)ccc(-c2ccccc2)c1CC(=O)NCc1ccc(C(=N)N)cc1              pIC50          5.02
7  N=C(N)c1ccc(CNC(=O)Cc2c(F)ccc(NS(=O)(=O)Cc3ccccc3)c2F)cc1              pIC50         ~4.52

Now, please, on to the next compound.
What reported pIC50 corresponds to "N=C(N)NCCCCNC(=O)c1cc(NS(=O)(=O)Cc2ccccc2)ccc1Sc1ccccc1" on human thrombin (Homo sapiens)?
< 4.00

---

Measured IC50 (human thrombin (Homo sapiens, UniProt P00734))
// units = µM; emit number, no label

> print(dat)
                               given.smiles                           target.of.assay  result.value
1  COc1c(NC(C)C)ccc(-c2ccccc2)c1CC(=O)NCc1ccc(C(=N)N)cc1  human thrombin (Homo sapiens, UniProt P00734)           7.9

Then there is this compound:
// map "N=C(N)c1ccc(CNC(=O)Cc2c(-c3cccc(N)c3)ccc(NCc3ccccc3)c2F)cc1" to recorded IC50 (system: human thrombin (Homo sapiens, UniProt P00734))
9

---

# Target of assay: trypsin, type IX from porcine pancreas (Sus scrofa)
# Construct: purchased Sigma, St. Louis Mo; host or cells: porcine pancreas
# Sequence (P00761 9-231): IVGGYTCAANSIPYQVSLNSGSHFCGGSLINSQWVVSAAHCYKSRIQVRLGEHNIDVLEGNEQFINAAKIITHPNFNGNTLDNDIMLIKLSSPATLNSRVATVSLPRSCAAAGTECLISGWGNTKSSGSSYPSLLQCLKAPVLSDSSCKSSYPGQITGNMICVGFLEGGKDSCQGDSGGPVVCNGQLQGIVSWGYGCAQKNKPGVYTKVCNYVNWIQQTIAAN
# Procedure text: Trypsin Assay (L-BAPNA, 405 nm)
# Type: biochemical
# Condition notes: read-out: Trpysin II IC50
Form field: IC50 (one value per entry).
API: value field is a number in nM; no unit string.

Which value of IC50 has been reported for "O=C(NCC1CCNCC1)c1cc(NS(=O)(=O)Cc2ccccc2)ccc1Sc1ccccc1" in the records?
300

# query: IC50 of entry "COc1c(NC(C)C)ccc(-c2ccccc2)c1CC(=O)NCc1ccc(C(=N)N)cc1"
100

Look up IC50: "N=C(N)c1ccc(CNC(=O)Cc2c(F)ccc(NCCc3ccccc3)c2F)cc1"
800

// returns reported IC50 for input "N=C(N)c1cccc(CNC(=O)c2cc(NS(=O)(=O)Cc3ccccc3)ccc2Sc2ccccc2)c1"
23000

Look up IC50: "COc1c(NCCc2ccccc2)ccc(-c2ccccc2)c1CC(=O)NCc1ccc(C(=N)N)cc1"
500

Reported IC50, compound "N=C(N)c1ccc(CNC(=O)Cc2c(-c3cccc(N)c3)ccc(NCc3ccccc3)c2F)cc1" : ____
200

GET /values?readout=IC50&item= "O=C(Cc1c(F)ccc(NS(=O)(=O)Cc2ccccc2)c1F)NCC1CCNCC1"
300
